This collection of values is drawn from ChEMBL document CHEMBL1134935.

Molecular target: UniProt:Q72874
Experiment: Compound was tested for its inhibitory potency against HIV protease at 0.5 nM
readout_name: inhibition

Challenge: Consider the compound CCCC[C@@H](C[C@H](O)[C@H](Cc1ccccc1)NC(=O)COc1c(C)cccc1C)NC(=O)[C@H](C(C)C)N1CCCNC1=O and give its recorded inhibition.
Response given: 87%

Challenge: In one line, give reported inhibition of the entry CCC(CC)C[C@@H](C[C@H](O)[C@H](Cc1ccccc1)NC(=O)COc1c(C)cccc1C)NC(=O)[C@H](C(C)C)N1CCCNC1=O .
Response given: 87%

Challenge: Entry Cc1cccc(C)c1OCC(=O)N[C@@H](Cc1ccccc1)[C@@H](O)C[C@@H](NC(=O)[C@H](C(C)C)N1CCCNC1=O)C(C)C needs its inhibition filled in; supply it.
Response given: 93%

Challenge: Indicate its recorded inhibition; the compound in question is Cc1cccc(C)c1OCC(=O)N[C@@H](Cc1ccccc1)[C@@H](O)C[C@H](CCC(C)C)NC(=O)[C@H](C(C)C)N1CCCNC1=O
Response given: 97%

Challenge: Using the record for Cc1cccc(C)c1OCC(=O)N[C@@H](Cc1ccccc1)[C@@H](O)C[C@H](CC(C)C)NC(=O)[C@H](C(C)C)N1CCCNC1=O , state its measured inhibition.
Response given: 64%

Challenge: In one line, give reported inhibition of the entry Cc1cccc(C)c1OCC(=O)N[C@@H](Cc1ccccc1)[C@@H](O)C[C@H](Cc1ccccc1)NC(=O)[C@H](C(C)C)N1CCCNC1=O .
Response given: 93%
